Consider the following compounds; for each one, report its Percent Effect.
biological target: Protein translocase subunit SecA (Escherichia coli (strain K12)); assay: Assay to Identify E. coli SecA ATPase Inhibitors; assay type: functional; parameters: scale not given: direction of the effect not stated beside the values; conditions: 30 µM
Entries with a potency or affinity are not part of this list.
Your answer should be a plain number; it is taken to be in %.

Give the measured Percent Effect of CCCNC(=O)c1ccc(NC(=O)c2cccc(OCC)c2)cc1 .
1.49

Give the measured Percent Effect of Cc1nn2cccnc2c1C(=O)N1CCCC(n2ccnc2)C1 (stereo unspecified) .
0.231

Give the measured Percent Effect of COC[C@@H]1CC[C@H]2[C@H](CCN2S(=O)(=O)c2cccc(C)c2)O1 .
-1.1

Give the measured Percent Effect of O=C(NCc1ccco1)[C@@]12CCO[C@@H]1CCN(CCN1CCCC1)C2 .
-6.16

Give the measured Percent Effect of O=C(NCC(O)c1cccs1)c1cccc(Cl)c1 (stereo unspecified) .
-0.149

Give the measured Percent Effect of Cn1cc(CN2C[C@@H]3CN(Cc4ccoc4)CCO[C@@H]3C2)cn1 .
-1.93

Give the measured Percent Effect of Cc1cccc(NC(=O)[C@@H]2CCCN2CC(=O)N2CCCCCC2)n1 .
-4.79

Give the measured Percent Effect of Cc1cccc(C(=O)NC(CN2CCCC2=O)c2ccccc2)n1 (stereo unspecified) .
-2.94

Give the measured Percent Effect of COCCNC(=O)[C@H]1C[C@@H]2CCN(Cc3ccoc3)C[C@H]2O1 .
-1.42

Give the measured Percent Effect of O=C(NCC1CC1)[C@H]1C[C@H]2OCC[C@H]2N(Cc2ccsc2)C1 .
-6.05

Give the measured Percent Effect of CCN(Cc1cccc2c1OCO2)C(=O)C(C)c1cccnc1 (stereo unspecified) .
-0.831

###

species: Homo sapiens; assay: To identify inhibition of the IFN signalling (Jak-Stat) pathway via expression of an eGFP reporter gene under the control of an IFN-stimulated response element (ISRE) containing MxA promoter.; assay type: functional; set-up: scale not given: direction of the effect not stated beside the values; settings: 30 µM
Mark met only for Percent Effect values smaller than 20%; exact matches and larger values are not met.

Hello, I'm reviewing records and need to know if Percent Effect of Cc1nc(C)c(C(=O)NCCNC(=O)c2ccc(F)cc2F)s1 is below 20%. Could you check?
met

Hello, I'm reviewing records and need to know if Percent Effect of O=C(CN1CCNCC1)N1CC[C@@H](c2ccc3ccccc3c2)[C@H](O)C1 is below 20%. Could you check?
met

Hello, I'm reviewing records and need to know if Percent Effect of Cc1cc(C(=O)N2CCC(c3nccn3CCCN(C)C)CC2)no1 is below 20%. Could you check?
not met

Hello, I'm reviewing records and need to know if Percent Effect of O=C(CCNc1ncccn1)N1CCCC(n2ccnc2)C1 (centres undefined) is below 20%. Could you check?
met

Hello, I'm reviewing records and need to know if Percent Effect of Cn1ccc(CN2CCCC2c2ccc3c(c2)OCCCO3)cc1=O (centres undefined) is below 20%. Could you check?
not met

Hello, I'm reviewing records and need to know if Percent Effect of Cn1nnc2c1CCN(Cc1ccccc1)C2COCC1CC1 (centres undefined) is below 20%. Could you check?
met

Hello, I'm reviewing records and need to know if Percent Effect of Cc1[nH]ncc1C(=O)N1CCN(CC(O)C(C)(C)C)CC1 (centres undefined) is below 20%. Could you check?
met

Hello, I'm reviewing records and need to know if Percent Effect of Cc1cccc(OCCC(=O)N2CCCN(C(N)=O)CC2)c1C is below 20%. Could you check?
not met

Hello, I'm reviewing records and need to know if Percent Effect of CCC(=O)N1CCN(C(=O)CCn2cccn2)CC1 is below 20%. Could you check?
met

Hello, I'm reviewing records and need to know if Percent Effect of O=C(c1ccc(-n2ccnc2)nc1)N1CCCC(n2cccn2)C1 (centres undefined) is below 20%. Could you check?
met

Hello, I'm reviewing records and need to know if Percent Effect of COCCn1cc(C(=O)N2CCCC2c2cccc(F)c2)ccc1=O (centres undefined) is below 20%. Could you check?
met

Hello, I'm reviewing records and need to know if Percent Effect of CS(=O)(=O)NCC1CCCN(C(=O)COc2ccc(F)cc2)C1 (centres undefined) is below 20%. Could you check?
met

Hello, I'm reviewing records and need to know if Percent Effect of Cc1cnn(CC2CCCCN2CC(=O)Nc2c(C)n[nH]c2C)c1 (centres undefined) is below 20%. Could you check?
met

Hello, I'm reviewing records and need to know if Percent Effect of CCc1cnc(N2CCC3(CC2)CN(c2cccnc2)C(=O)CO3)nc1 is below 20%. Could you check?
not met

Hello, I'm reviewing records and need to know if Percent Effect of COc1cc(CNCc2c(C)nn(C)c2N(C)C)ccn1 is below 20%. Could you check?
met

Hello, I'm reviewing records and need to know if Percent Effect of Cn1ccnc1CN1CCCN(C(=O)c2ccc(Cl)o2)CC1 is below 20%. Could you check?
met

Hello, I'm reviewing records and need to know if Percent Effect of COC(=O)CCNC(=O)c1ccoc1CN1c2ccccc2CC1C (centres undefined) is below 20%. Could you check?
met

Hello, I'm reviewing records and need to know if Percent Effect of CNC(=O)C1(c2cnccn2)CCCN1C(=O)c1ccccc1OC (centres undefined) is below 20%. Could you check?
met

Hello, I'm reviewing records and need to know if Percent Effect of COC(=O)[C@H](C)NC(=O)c1cc(-c2cccc(Cl)c2)no1 is below 20%. Could you check?
met

Hello, I'm reviewing records and need to know if Percent Effect of CSC(C)C(=O)N1CCCN(Cc2cnn(C(C)C)c2)CC1 (centres undefined) is below 20%. Could you check?
met

Hello, I'm reviewing records and need to know if Percent Effect of Cc1csc([C@@H]2C[C@@H]3CCN(C(=O)c4cc(C)on4)C[C@H]3O2)n1 is below 20%. Could you check?
met

Hello, I'm reviewing records and need to know if Percent Effect of CCOc1ccc(CN2CCN(C(=O)c3ccc(C)n3C)CC2)cc1 is below 20%. Could you check?
met

Hello, I'm reviewing records and need to know if Percent Effect of CCn1cnnc1C1CCN(C(=O)c2ccc3cc[nH]c3c2)CC1 is below 20%. Could you check?
met

###

Consider the following molecules; for each one, report its Percent Effect.
Target: Tyrosyl-tRNA synthetase, putative (Trypanosoma cruzi (strain CL Brener)) (UniProt Q4DSP6)
Sequence (whole entry): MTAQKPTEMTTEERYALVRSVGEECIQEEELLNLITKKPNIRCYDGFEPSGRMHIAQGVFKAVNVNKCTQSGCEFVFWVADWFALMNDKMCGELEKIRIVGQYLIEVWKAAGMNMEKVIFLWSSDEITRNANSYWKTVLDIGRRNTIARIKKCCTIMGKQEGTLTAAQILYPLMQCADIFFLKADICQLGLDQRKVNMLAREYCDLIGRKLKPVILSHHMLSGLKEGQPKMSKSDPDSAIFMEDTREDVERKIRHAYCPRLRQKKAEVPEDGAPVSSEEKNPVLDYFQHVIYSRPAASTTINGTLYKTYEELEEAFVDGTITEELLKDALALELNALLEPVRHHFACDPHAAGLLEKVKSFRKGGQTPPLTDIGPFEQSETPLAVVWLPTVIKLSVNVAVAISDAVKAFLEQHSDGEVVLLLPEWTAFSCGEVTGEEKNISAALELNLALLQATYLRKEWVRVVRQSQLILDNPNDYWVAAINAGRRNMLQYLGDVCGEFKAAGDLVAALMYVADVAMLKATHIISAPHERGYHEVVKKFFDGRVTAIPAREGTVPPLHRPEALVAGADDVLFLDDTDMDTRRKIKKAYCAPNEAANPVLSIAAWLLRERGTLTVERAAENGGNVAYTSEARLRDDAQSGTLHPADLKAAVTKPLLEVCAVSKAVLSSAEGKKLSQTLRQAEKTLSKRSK
Assay: Trypanosoma cruzi tyrosyl tRNA synthetase (TcYRS) _High Tyrosine SOP; note: in the data most compounds retested in dose-response had high values
Format: functional
Set-up: scale not given: direction of the effect not stated beside the values
Settings: 30 µM

Give the measured Percent Effect of Cc1cc(CN2CCOC(CN(C)c3cccnn3)C2)no1 (configuration not stated) .
0.952%

Give the measured Percent Effect of O=C1NCC[C@]12CN(Cc1ccoc1)C[C@H]2c1ccccc1 .
4.23%

Give the measured Percent Effect of c1ccc(CNC2CCc3ncnn3C2)nc1 (configuration not stated) .
9.09%

Give the measured Percent Effect of CCS(=O)(=O)N1CCO[C@H]2[C@H](OCCCn3cccn3)CC[C@@H]21 .
-4.17%

Give the measured Percent Effect of CN(Cc1nccn1CC(F)(F)F)C(=O)c1ccc(F)cc1F .
6.38%

Give the measured Percent Effect of Cc1ccc2oc(C(=O)N3CCCC(n4nc(C)cc4C)C3)cc2n1 (configuration not stated) .
4.31%

Give the measured Percent Effect of Cn1cc(CN2CC[C@@H]3[C@@H](CCC(=O)N3CCC3=CCCCC3)C2)cn1 .
0%

Give the measured Percent Effect of Cc1cnn(CC2CCCN2CC(=O)Nc2nc(C)cs2)c1 (configuration not stated) .
12.8%

Give the measured Percent Effect of CN(Cc1ccccc1)CC(O)Cn1cnc2ccsc2c1=O (configuration not stated) .
0.478%

Give the measured Percent Effect of Cc1nn(C)c(C)c1C1CCCN1C(=O)CCc1cscn1 (configuration not stated) .
1.48%

Give the measured Percent Effect of Cc1cccnc1NC(=O)CSc1ccc2c(c1)OCCO2 .
0%

Give the measured Percent Effect of CC(=O)NCC(=O)N1CCOC2(CCCN(c3cccnc3)C2)C1 (configuration not stated) .
8.91%

Reference source: ChEMBL document CHEMBL3988442
